# assay_method_text: Stability in 75% rat plasma assessed as parent compound remaining after 6 hrs by HPLC analysis
# Assay type: ADME, cell-free
# particulars: read-out: Stability
attribute_measured: remaining at 6 h

Query string: Tell me remaining at 6 h reported for Cl.NC(Cc1cccc(C(=O)NCCc2ccc(O)c(O)c2)c1)C(=O)O (configuration not stated)
Result string: 57.4 to 62.7%

Query string: Tell me remaining at 6 h reported for `Cl.N[C@@H](Cc1ccc(OC(=O)NCCc2ccc(O)c(O)c2)cc1)C(=O)O`
Result string: 40.5 to 60.5%

----------
# assay_method_text: Half-life in human in presence of COMT inhibitor entacapone
# Format: ADME, organism-based
# particulars: in vivo
attribute_measured: half-life

Query string: Tell me half-life reported for N[C@@H](Cc1ccc(O)c(O)c1)C(=O)O [LEVODOPA]
Result string: 0.5 to 1.5 h

----------
Give remaining at 6 h for every item shown.
# assay_method_text: Stability in pH 7.4 isotonic tris buffer assessed as parent compound remaining after 6 hrs by HPLC analysis
# Format: physicochemical
# particulars: read-out: Stability

Query string: Tell me remaining at 6 h reported for `Cl.N[C@@H](Cc1ccc(OC(=O)NCCc2ccc(O)c(O)c2)cc1)C(=O)O`
Result string: 78.1 to 93.1%

Query string: Tell me remaining at 6 h reported for Cl.NC(Cc1cccc(C(=O)NCCc2ccc(O)c(O)c2)c1)C(=O)O (stereo not drawn)
Result string: 83.2 to 83.7%

Query string: Tell me remaining at 6 h reported for `N[C@@H](Cc1ccc(O)c(O)c1)C(=O)O`
Result string: 99.8 to 103%

----------
Give remaining at 6 h for every item shown.
# assay_method_text: Stability in 10% rat liver homogenates assessed as parent compound remaining after 6 hrs by HPLC analysis
# Assay type: ADME, tissue-based
# particulars: 10% rat liver homogenate, read-out: Stability

Query string: Tell me remaining at 6 h reported for `Cl.N[C@@H](Cc1ccc(OC(=O)NCCc2ccc(O)c(O)c2)cc1)C(=O)O`
Result string: 63.2 to 66.5%

Query string: Tell me remaining at 6 h reported for Cl.NC(Cc1cccc(C(=O)NCCc2ccc(O)c(O)c2)c1)C(=O)O (configuration not stated)
Result string: 47.7 to 51.9%
